- test: Biostudy of carisoprodol (SOMA®) pharmacokinetics under non-fasted and fasted conditions, randomized single-dose two-way crossover
- Type: in vivo, human (healthy adults)
- condition notes: human, oral; carisoprodol in plasma; non-fasted; read-out: T½, least sq. mean (converted)
quantity name: half-life (h)

compound="CCCC(C)(COC(N)=O)COC(=O)NC(C)C (stereo not shown)" unit_annotation=h recorded_result=1.95

----------
- test: Biostudy of carisoprodol (SOMA®) pharmacokinetics under non-fasted and fasted conditions, randomized single-dose two-way crossover
- Format: in vivo, human (healthy adults)
- condition notes: human, plasma, oral, carisoprodol in plasma; fasted; read-out: Tmax, least sq. mean (non-transformed)
quantity name: Tmax (h)

compound="CCCC(C)(COC(N)=O)COC(=O)NC(C)C (stereo not shown)" quantity_name=Tmax recorded_result=1.63

----------
- test: Biostudy of carisoprodol (SOMA®) pharmacokinetics under non-fasted and fasted conditions, randomized single-dose two-way crossover
- Assay type: in vivo, human (healthy adults)
- condition notes: human, plasma, oral, carisoprodol in plasma; non-fasted; read-out: AUC0-t, geometric mean (ln-transformed)
quantity name: AUC(0-t) (ng·h/mL)

compound="CCCC(C)(COC(N)=O)COC(=O)NC(C)C (stereo not shown)" quantity_name=AUC(0-t) recorded_result=6140
